Origin of the recorded values: the supplement of paper PMC10567573

B1: APBB1IP (parent)
chain: SQVSMWDQRWQDHQPLLPITDVP

Variants of: B1
experiment.description: protein stability index of a GFP-peptide fusion (GPS, HEK-293T) (PSI 1-6); higher = more stable;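 also: lentivirally expressed fusions sorted by FACS into six bins by GFP to DsRed ratio, PSI derived from sequencing read proportions per bin multiplied by bin number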
test.settings: c terminus: native
Provide the reported protein stability index of each item.
One number for each entry.

Record excerpt, results attached:
sequence.variant: V3I
protein stability index: 2.23

sequence.variant: V22P
protein stability index: 2.83

sequence.variant: I19K
protein stability index: 4.04

Respectfully, I request protein stability index for each entry included below.
1. V22Y
2. M5T
3. Q8W
4. H13F

Output line:
1. 1.91
2. 2.73
3. 3.03
4. 1.88
